Here the recorded MIC is given for each entry.
System: Staphylococcus epidermidis
Experiment: Susceptibility (MIC) of S. epidermidis isolates used in CVC studies
Conditions: strain 1317 Staphylococcus epidermidis
Give the value in µg/mL but do not write µg/mL after it.

Worked set:
- STRUCTURE STRING: "CCOc1ccc2ccccc2c1C(=O)N[C@@H]1C(=O)N2[C@@H]1SC(C)(C)[C@@H]2C(=O)O"
  SYSTEM NAME: "Staphylococcus epidermidis"
  UNITS LABEL: "µg/mL"
  ASSAY VALUE: 0.125
- STRUCTURE STRING: "CC(=O)NC[C@H]1CN(c2ccc(N3CCOCC3)c(F)c2)C(=O)O1"
  SYSTEM NAME: "Staphylococcus epidermidis"
  UNITS LABEL: "µg/mL"
  ASSAY VALUE: 0.5
- STRUCTURE STRING: "CN[C@H](CC(C)C)C(=O)N[C@H]1C(=O)N[C@@H](CC(N)=O)C(=O)N[C@H]2C(=O)N[C@H]3C(=O)N[C@H](C(=O)N[C@H](C(=O)O)c4cc(O)cc(O)c4-c4cc3ccc4O)[C@H](O)c3ccc(c(Cl)c3)Oc3cc2cc(c3O[C@@H]2O[C@H](CO)[C@@H](O)[C@H](O)[C@H]2O[C@H]2C[C@](C)(N)[C@H](O)[C@H](C)O2)Oc2ccc(cc2Cl)[C@H]1O"
  SYSTEM NAME: "Staphylococcus epidermidis"
  UNITS LABEL: "µg/mL"
  ASSAY VALUE: 1

Now turn to the next compound.
The compound listed as CCCCCCCCCC(=O)N[C@@H](Cc1c[nH]c2ccccc12)C(=O)N[C@H](CC(N)=O)C(=O)N[C@@H](CC(=O)O)C(=O)N[C@@H]1C(=O)NCC(=O)N[C@@H](CCCN)C(=O)N[C@@H](CC(=O)O)C(=O)N[C@H](C)C(=O)N[C@@H](CC(=O)O)C(=O)NCC(=O)N[C@H](CO)C(=O)N[C@@H]([C@H](C)CC(=O)O)C(=O)N[C@@H](CC(=O)c2ccccc2N)C(=O)O[C@@H]1C shows MIC equal to 1
